Molecular target: T1, Anti-PSMA Fab
T1 construct: Biotinylated and captured on neutravidin plates in the phage ELISA; also called 006 PSMA Fab
Test: clonal phage ELISA; biotinylated anti-PSMA Fab on neutravidin plate; anti-M13 HRP detection; no PSMA added
Readout Name: Phage binding ELISA signal, Anti-PSMA Fab

>  <Binder>
HDYACVPKWMCEGL [Phage-3621]

>  <Reported Measurement>
1.57

$$$$
>  <Binder>
IVKFCIPQWMCDGF [Phage-3623]

>  <Reported Measurement>
1.56

$$$$
>  <Binder>
LAVKCEPAWMCTGF [Phage-3627]

>  <Reported Measurement>
1.55

$$$$
>  <Binder>
DDRVCRPDWMCNGF [Phage-3624]

>  <Reported Measurement>
1.56

$$$$
